System: THRa:RXRa (NR concentration 90 nM, RXRa partner concentration 90 nM)
method.summary: PBM binding z-score (relative to random genomic background probes); higher = stronger binding; sequences stand for … in GC…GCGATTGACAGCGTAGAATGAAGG
Recorded PBM binding z-score for the following sequences
parameter.measured: PBM binding z-score

sequence.record: ACTAGTTGGTCAGCTGACGTCACACACAATTCGG
parameter.measured: PBM binding z-score
observed: 0.178

sequence.record: CCGACTGGGGCAAGGTTACCATGACGCACAGCCA
parameter.measured: PBM binding z-score
observed: 1.21

sequence.record: AGAATGAGGGTAAGATCAGGGAAACAGAATACAT
parameter.measured: PBM binding z-score
observed: 1.54

sequence.record: GCTGCTAGATCAGGTTGGTCAGCTAACGGGTACG
parameter.measured: PBM binding z-score
observed: -0.611

sequence.record: CCTACTGGGCCAAGGTCATTGTTCAGTCAAAGCA
parameter.measured: PBM binding z-score
observed: 3.45

sequence.record: CATTACGGGTCACGAGGTTATAGCACGACGAGCG
parameter.measured: PBM binding z-score
observed: 3.82

sequence.record: TAGCCTAGGTCAGCTCGGGCCAGTATACGCTATA
parameter.measured: PBM binding z-score
observed: 4.27

sequence.record: ACCGAAAGGTCGAGGTGAGTATAGAGAAAGGGAA
parameter.measured: PBM binding z-score
observed: 2.94

sequence.record: GGAATGAGGGCAAGTTGATAGCAGAGTTTGATGG
parameter.measured: PBM binding z-score
observed: 1.85

sequence.record: CCTACTAGTTGACCATAAGGGCAACCGAAGCTCG
parameter.measured: PBM binding z-score
observed: 1.75

sequence.record: ACTAGTTGGTCAGCTGATGTCACACACAATTCGG
parameter.measured: PBM binding z-score
observed: 1.29

sequence.record: TAGCCTAGGTCATTAAGGGGCCAGTATAGAAAGC
parameter.measured: PBM binding z-score
observed: 2.9

sequence.record: CAAACTACGTCACGAAAGGTCAAAGTCGAATGAC
parameter.measured: PBM binding z-score
observed: 3.93

sequence.record: CCTGACGGGTCAAGGTTATAGCACGGGTGGTACG
parameter.measured: PBM binding z-score
observed: 2.63

sequence.record: GCGACTGGGGCATCAGCAGGTTTCCATAACTTAA
parameter.measured: PBM binding z-score
observed: -0.0527

sequence.record: TCCCGGAGGACACGAAAGGTCAGAGCTCGACATC
parameter.measured: PBM binding z-score
observed: 3.88

sequence.record: GGACCGAGGGCAAAGTTGATAGCATCTGTCGACG
parameter.measured: PBM binding z-score
observed: 1.04

sequence.record: ATATGTTGGTTAAGGGTCATTCAGGTTGGTTCGC
parameter.measured: PBM binding z-score
observed: 3.25

sequence.record: ATCTCTAGGTAAACAAGTTCAGTGAATGCCGAAC
parameter.measured: PBM binding z-score
observed: 1.33

sequence.record: CAGCCTAGGTCAGGGACAGTATAGGAGGAACGTT
parameter.measured: PBM binding z-score
observed: 2.37

sequence.record: AGAATGAGGTTGAGATCAGGGAAACAGAATACAT
parameter.measured: PBM binding z-score
observed: 1.35

sequence.record: CCAACTAGGTCACGAAAGGTCAAAGTCGAATGAC
parameter.measured: PBM binding z-score
observed: 5.44

sequence.record: GATACAGGCTCAAGGCCAGAGTACGCGTATTGAT
parameter.measured: PBM binding z-score
observed: -0.479

sequence.record: ATCGAAAGGTCTACGAGGTGAGTATACACCGTTT
parameter.measured: PBM binding z-score
observed: 2.26

sequence.record: CCTTACGGGTCAACGTTATAGCACGGGTGGTACG
parameter.measured: PBM binding z-score
observed: 2.36

sequence.record: TTACCAAGGTGAAGGTCGTTGACCCCTCTGTAGA
parameter.measured: PBM binding z-score
observed: 3.6

sequence.record: TCATACAGGTAATACAGGTGAAAGTCGGCATCTA
parameter.measured: PBM binding z-score
observed: 1.18

sequence.record: AGTAGCAGGCCAAGTTTGGGTCACTCAAACAAAG
parameter.measured: PBM binding z-score
observed: 2.62

sequence.record: CCTCGGAGTACAGAAGGTCAGAGCTGTCCGCTTT
parameter.measured: PBM binding z-score
observed: 2.3

sequence.record: AGAACGAGGGCAATGAGTTTATAGCACGGGTGGC
parameter.measured: PBM binding z-score
observed: 0.983

sequence.record: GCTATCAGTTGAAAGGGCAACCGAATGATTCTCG
parameter.measured: PBM binding z-score
observed: 0.693

sequence.record: GCATATAGGTAACACAAGGTGAAAGTCCGATTGT
parameter.measured: PBM binding z-score
observed: 4.19

sequence.record: CGTCCAAGGACAGAGAGGTCAGTGAATGCCGAGT
parameter.measured: PBM binding z-score
observed: 3.27

sequence.record: CTCGAAAGGTCGGTTCAGGTGAGTATACGGATAA
parameter.measured: PBM binding z-score
observed: 5.09

sequence.record: ATCTCTAGGTAGAGATAGTTCAGTGAATGCAAAT
parameter.measured: PBM binding z-score
observed: 0.148

sequence.record: CCTACTGGGGCAAAGGTTACCATACTCAGTACGA
parameter.measured: PBM binding z-score
observed: 1.85

sequence.record: TTACCAAGGTGAAGGTGGTTGATCCCTCTGTAGA
parameter.measured: PBM binding z-score
observed: 1.78

sequence.record: TCGAGTAGGTTAGTCGGGGCATTTAGCCAACATA
parameter.measured: PBM binding z-score
observed: 1.12

sequence.record: TCTCCTAGGTCAACGATGGTCAGCTAATCTGCTA
parameter.measured: PBM binding z-score
observed: 3.32

sequence.record: CCTATTAGTTGACCATAAGGGCAACCGGAGCTCG
parameter.measured: PBM binding z-score
observed: 1.87

sequence.record: TTACCACGGTGAGCTGAGGTCGTTGATCCAACTC
parameter.measured: PBM binding z-score
observed: 3.24

sequence.record: TAGCCTAGGGCATGGGCCAGTATACCACGCGAAC
parameter.measured: PBM binding z-score
observed: -0.0791

sequence.record: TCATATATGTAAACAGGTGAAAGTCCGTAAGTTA
parameter.measured: PBM binding z-score
observed: 0.84

sequence.record: CGAACGAGGGCATGAGTTGATAGTAAATGCCGAT
parameter.measured: PBM binding z-score
observed: 1.33

sequence.record: CGAACTAGGTCATCCAGGAAAGTGAATACATTGA
parameter.measured: PBM binding z-score
observed: 2.77

sequence.record: CCTGCTATGTCAATGGTCAGCTAAAGCAGCTCGC
parameter.measured: PBM binding z-score
observed: -0.688

sequence.record: CCTAGTTGGTCAGGAGGTCACGCACCGGATATGA
parameter.measured: PBM binding z-score
observed: 3.94

sequence.record: TCTGCTAGGTCAGTTGGTCAGCTTACGAGCTGCC
parameter.measured: PBM binding z-score
observed: 1.26

sequence.record: ATCGAAAGGTCGACGAGGTCAGTATACACCGTTT
parameter.measured: PBM binding z-score
observed: 4.67

sequence.record: GCGCGGAGGACAAGGTCAGAGCTTTGTCCGTAGA
parameter.measured: PBM binding z-score
observed: 2.89

sequence.record: CCTTACGGGTCACTCCAGGTTATAGCATCGGAGT
parameter.measured: PBM binding z-score
observed: 4.89
